Tested on: NCI-H522 lung
protocol summary: NCI-60 one-dose screen, 48 h
cond: 10 µM unless noted
Compounds without any hit were thinned out: in the full panel of roughly 83,000, 20% have a hit. Calls of active or inactive are those of the source. How the source made its calls: active means growth percent below 10; inactive means the rest.
Outcome field: choose from active, inactive

{"columns": ["compound", "discrete label"],
 "data": [
  ["COc1cc(C2C=C(c3ccc(C)cc3)Nc3nc(SC)[nH]c(=O)c32)ccc1Oc1ccnc2cc(Cl)ccc12 (stereo not given)", "inactive"],
  ["O=C(Nc1cccc(-n2cc(-c3ccncc3)c(-c3ccc(O)c(Cl)c3)n2)c1)Nc1ccc(Cl)c(C(F)(F)F)c1", "active"],
  ["COC(=O)C[C@@H]1CC=CC(=O)/C1=C(O)/C=C/c1ccccc1", "active"],
  ["COc1ccccc1[C@H]1c2[nH]c3ccccc3c2C[C@H]2C(=O)N(CCCCCCC(=O)NO)CC(=O)N12", "inactive"],
  ["Cc1cc(C(C)(C)C)cc(C)c1CC1=NCCN1", "inactive"]
]}

How was COc1cccc2c1O/C(=C\c1c([N+](=O)[O-])ncn1C)C2=O classified in this test?
inactive

How was COc1ccc(C2CC(c3ccc(OC)c(OC)c3)=NN2C(=O)c2cc(OC)c(OC)c(OC)c2)c(OC)c1 (stereo not given) classified in this test?
inactive

How was CN1CCCC1c1cccnc1 (stereo not given) classified in this test?
inactive

How was O=[N+]([O-])c1ccc2c(c1)S(=O)c1cc([N+](=O)[O-])ccc1N2 classified in this test?
inactive

How was C=C(C)[C@H]1CC/C(C)=C/CC[C@]2(C)O[C@H]2CC/C(C=O)=C\C1O (stereo not given in full) classified in this test?
inactive

How was C=C1CC[C@@H]2[C@](C)(COC(C)=O)[C@H](OC(C)=O)CC[C@@]2(C)[C@@H]1CC(Nc1ccc(S(=O)(=O)Nc2cc(C)on2)cc1)C1=CCOC1=O (stereo not given in full) classified in this test?
active

How was NC(=Nc1ccccc1)SCCCCSC(N)=Nc1ccccc1 classified in this test?
inactive

How was O=[N+]([O-])c1ccc(N/N=C/c2c(O)ccc3ccccc23)nc1 classified in this test?
inactive

How was COc1ccc(-c2oc3cc(O)c(OC)c(O)c3c(=O)c2OC)cc1O classified in this test?
active

How was NS(=O)(=O)c1ccc(NC2=C(Cl)C(=O)c3ccccc3C2=O)cc1 classified in this test?
inactive

----------
Tested on: SW-620 colon
protocol summary: NCI-60 one-dose screen, 48 h
cond: 10 µM unless noted
This is part of a sample that, as a whole, favours compounds with a hit. Of some 83,000 tested, about 20% had one in any assay. The source made the active and inactive calls. How the source made its calls: active means growth percent below 10; inactive means the rest.
Outcome field: choose from True (active), False (inactive)

{"columns": ["compound", "discrete label"],
 "data": [
  ["Cc1nnc(Nc2ccc(NC(=O)Nc3ccc(Cl)cc3)cc2)c2ccccc12", "False"]
]}

How was COC(=O)C[C@@H]1CC=CC(=O)/C1=C(O)/C=C/c1ccccc1 classified in this test?
True

How was COc1ccc(CCN2CCCN3C2=Nc2ccccc2S3(=O)=O)cc1 classified in this test?
False

How was Oc1ccc(-c2nn(-c3ccccc3)cc2-c2nc3ccccc3s2)cc1 classified in this test?
False

How was Clc1ccc(-n2cnc3c(Cl)ncnc32)cc1Cl classified in this test?
False

How was COc1cc(C2NC(c3ccc(Cl)cc3)C(C)/C(=N/NC(N)=S)C2C)cc(OC)c1OC (stereo unspecified) classified in this test?
False

----------
What growth was measured for each of the following?
Tested on: OVCAR-5 ovarian
protocol summary: NCI-60 one-dose screen, 48 h (100 = growth as untreated, 0 = no growth, -100 = all killed)
cond: 10 µM unless noted
The panel holds about 83,000 compounds, 20% with a hit somewhere; the sample as a whole holds those more often.
Answers are plain numbers, in %.

Example cases with answers are listed next.
{"columns": ["compound", "tested on", "growth [%]"],
 "data": [
  ["Cc1c(C(N)=O)sc2nc(SCC(=O)Nc3ccc(Cl)cc3)n(-c3ccccc3)c(=O)c12", "OVCAR-5 ovarian", 93.9],
  ["O=C(CCc1nnc2sc(-c3ccc(Cl)cc3Cl)nn12)c1nc2ccccc2[nH]1", "OVCAR-5 ovarian", -52.6],
  ["CC(C)c1nc(N(C)S(C)(=O)=O)nc(-c2ccc(F)cc2)c1/C=C/[C@@H](O)C[C@@H](O)CC(=O)O", "OVCAR-5 ovarian", 108]
]}

Please supply growth for each of the following items, keeping them in order.
1. OC(CCC(O)(c1ccccc1)c1ccccc1)(c1ccccc1)c1ccccc1
2. CO[C@H]1CC(O[C@@H]2/C(C)=C/C[C@@H]3C[C@@H](C[C@]4(CC[C@H](C)[C@@H](C5CCCCC5)O4)O3)OC(=O)[C@@H]3C=C(C)/C(=N/O)[C@H]4OC/C(=C\C=C\[C@@H]2C)[C@]43O)O[C@@H](C)C1O (stereo partly drawn)
3. NC(=O)c1ccccc1NC(=O)c1ccccc1Cl
4. Oc1ccc(-c2nn(-c3ccccc3)cc2-c2nc3ccccc3s2)cc1
5. CC(=O)Oc1c(C)c(OC(C)=O)c2c(c1C(C)=O)OC1CC(=O)C(C(C)=O)=C(O)C21C (stereo not drawn)

1: 97.2; 2: -83; 3: 108; 4: 108; 5: 102

----------
System: SK-OV-3 ovarian
protocol summary: NCI-60 one-dose screen, 48 h (100 = growth as untreated, 0 = no growth, -100 = all killed)
cond: 10 µM unless noted
About 83,000 compounds went through this panel and 20% of them were active in at least one assay; those are over-represented in the sample as a whole.
quantity kind: growth (%)
Numbers only, in %.

Please supply growth for each of the following items, keeping them in order.
1. N#Cc1cccc(/C=C(/C(=O)c2ccccc2)c2ccccc2)c1
2. Nc1ccc(S(=O)(=O)Nc2ncccn2)cc1
3. ClC1=C(Cl)C(Cl)=C(Cl)C1=Cc1ccc(Cl)cc1

1: 110; 2: 116; 3: 95.5

Please supply growth for each of the following items, keeping them in order.
1. COc1c(O)cc2oc3cc(O)c(CC=C(C)C)c(O)c3c(=O)c2c1C/C=C(\C)CCC=C(C)C
2. Cc1nc2cc(NC(=O)CN3CCN(CCN4C(=O)c5cccc6cccc(c56)C4=O)CC3)ccc2s1
3. O=C1Cc2cc(CCN3CCN(CCOCCO)CC3)c(Cl)cc2N1Cc1ccc(-c2ccccc2-c2nn[nH]n2)cc1
4. CCCCOc1ccc(C(C)(C)c2ccc(OCCCC)cc2)cc1

1: 100; 2: 66.3; 3: 93.8; 4: 94.6

----------
Test system: SW-620 colon
protocol summary: NCI-60 one-dose screen, 48 h (100 = growth as untreated, 0 = no growth, -100 = all killed)
cond: 10 µM unless noted
The panel holds about 83,000 compounds, 20% with a hit somewhere; the sample as a whole holds those more often.
quantity kind: growth (%)
Numbers only, in %.

{"columns": ["molecule", "growth (%)"],
 "data": [
  ["CC1=CC(=O)C(C(C)=Nc2ccccc2Cl)C(=O)O1 (centres undefined)", 91.6],
  ["O=C(/C=C/c1ccc(Cl)cc1)c1ccccc1", 89.3],
  ["C=Cc1nn2c(CCC(=O)c3nc4ccccc4[nH]3)nnc2s1", 102],
  ["O=C(CCc1nnc(Cn2ccnc2)o1)c1nc2ccccc2[nH]1", 109],
  ["CC[C@@H]1OC(=O)[C@H](C)[C@@H](O[C@H]2C[C@@](C)(OC)[C@@H](O)[C@H](C)O2)[C@H](C)[C@@H](O[C@@H]2O[C@H](C)C[C@H](N(C)C)[C@H]2O)[C@](C)(O)C[C@@H](C)[C@@H]2N[C@@H](COCCOC)O[C@H]([C@H]2C)[C@]1(C)O", 111]
]}

Please supply growth for each of the following items, keeping them in order.
1. Cc1cc(NC(=O)Nc2cccc3ccccc23)no1
2. CCC(C)CC(C)C(=O)c1c(O)ccn(OC)c1=O (centres undefined)
3. CCC1(c2ccccc2)Oc2ccccc2-n2c(C#N)c3ccccc3c2C1=O (centres undefined)
4. O=C(C(=O)N1CCOCC1)c1ccc(OC2OC(CO)C(O)C(O)C2O)cc1 (centres undefined)

[109, 61.8, 107, 105]

----------
System: SF-539 CNS
protocol summary: NCI-60 one-dose screen, 48 h (100 = growth as untreated, 0 = no growth, -100 = all killed)
cond: 10 µM unless noted
About 83,000 compounds went through this panel and 20% of them were active in at least one assay; those are over-represented in the sample as a whole. Active and inactive are the calls of the source. How the source made its calls: active means growth percent below 10; inactive means the rest.
What growth was measured for each of the following?

Example cases with answers are listed next.
{"columns": ["compound", "tested on", "growth"],
 "data": [
  ["CC[N+](CC)(CCOCCOCC[N+](CC)(CC)Cc1ccc([N+](=O)[O-])cc1)Cc1ccc([N+](=O)[O-])cc1", "SF-539 CNS", "105% (inactive)"],
  ["COc1ncc(-c2ccc3nccc(C#CCN4CCN(S(C)(=O)=O)CC4)c3c2)cc1NS(=O)(=O)c1ccc(F)cc1F", "SF-539 CNS", "-16.1% (active)"],
  ["COc1ccc(Cn2c(NCCCN(C)C)nc(=O)n(Cc3ccc(F)cc3)c2=O)cc1", "SF-539 CNS", "108% (inactive)"],
  ["O=c1ccn(C2CCCO2)c(=O)[nH]1 (stereo unspecified)", "SF-539 CNS", "91.6% (inactive)"],
  ["COc1cccc(/C=C2\\COc3ccc(O)c(O)c3C2=O)c1OC", "SF-539 CNS", "-73% (active)"],
  ["COc1ccc2c(c1)C(=O)/C(=C/c1cccc(OCC(=O)c3ccccc3)c1)CC2", "SF-539 CNS", "93.5% (inactive)"],
  ["CCCc1cccc(CCC)c1O", "SF-539 CNS", "118% (inactive)"],
  ["CC(C)C(=O)Cc1cnccn1", "SF-539 CNS", "105% (inactive)"]
]}

Please supply growth for each of the following items, keeping them in order.
1. c1cnc2ccc3ncccc3c2c1
2. CCCCCCCCCCCCCCCCCC1=NC(C)(C)CN1CCO

1: 104% (inactive); 2: -80.6% (active)

Using the record for Cc1c(C(N)=O)sc2ncn(Cc3ccccc3)c(=O)c12 , report its growth.
94.6% (inactive)
